Assay: Plasma pharmacokinetics of DT2216 in patients, phase 1 dose escalation
Format: in vivo, human
Settings: human, plasma, iv, 0.24 mg/kg, Cycle 1 Day 1, 0.24 mg/kg IV, plasma, mean (CV%), N = 6; read-out: AUC0−24
propertyName: AUC(0-t) (ng·h/mL)
Numeric only. Scale: ng·h/mL

Exercise: What measured AUC(0-t) goes with Cc1ncsc1-c1ccc([C@H](C)NC(=O)[C@@H]2C[C@@H](O)CN2C(=O)[C@@H](NC(=O)CCCCCC(=O)N2CCN(CC[C@H](CSc3ccccc3)Nc3ccc(S(=O)(=O)NC(=O)c4ccc(N5CCN(CC6=C(c7ccc(Cl)cc7)CCC(C)(C)C6)CC5)cc4)cc3S(=O)(=O)C(F)(F)F)CC2)C(C)(C)C)cc1 [DT2216] ?
Key: 24500
